- System Under Test: human PDHK2 (hPDHK2) (Homo sapiens (Human))
- Experimental Details: Inhibitory action of PDHK activity in vitro (kinase reaction, residual PDH activity measured)
- Type: biochemical
- Test Settings: read-out: PDHK inhibitory activity IC50
pIC50: −log10 of the molar value.
Value Type: pIC50

compound="COC(=O)c1cc(C)c2c(c1)C(O)(C(F)(F)F)c1ccccc1-2 (centres unmarked)" value_type=pIC50 qual== readout_value=6.61
compound="Cn1cc(-c2cc(OCCCCC(=O)O)cc3c2-c2ccccc2C3(O)C(F)(F)F)cn1 (single isomer, unassigned)" value_type=pIC50 qual== readout_value=7.77
compound="O=S1(=O)CCCN1CCOc1ccc2c(c1)C(O)(C(F)(F)F)c1ccccc1-2 (centres unmarked)" value_type=pIC50 qual== readout_value=6.49
compound="CN(C)C(=O)c1ccccc1-c1ccc2c(c1)C(O)(C(F)(F)F)c1ccccc1-2 (centres unmarked)" value_type=pIC50 qual=< readout_value=5.00
compound="CN(C(=O)c1ccc2c(c1)C(O)(C(F)(F)F)c1ccccc1-2)C1CCC1 (centres unmarked)" value_type=pIC50 qual== readout_value=5.25
compound="COC(=O)C1CCN1C(=O)c1ccc2c(c1)C(O)(C(F)(F)F)c1ccccc1-2 (centres unmarked)" value_type=pIC50 qual== readout_value=6.14
compound="O=C1CCC(COc2ccc3c(c2)C(O)(C(F)(F)F)c2ccccc2-3)N1 (centres unmarked)" value_type=pIC50 qual== readout_value=6.30
compound="Cc1ccc2c(c1)C(O)(C(F)(F)F)c1cccc(C)c1-2 (centres unmarked)" value_type=pIC50 qual== readout_value=4.86
compound="CNC(=O)c1ccc2c(c1)-c1ccccc1C2(O)C(F)(F)F (centres unmarked)" value_type=pIC50 qual== readout_value=5.41
compound="CC(=O)Nc1ccc2c(c1)-c1ccccc1C2(O)C(F)(F)F (centres unmarked)" value_type=pIC50 qual== readout_value=5.55
compound="C/C=C/c1ccc2c(c1)C(O)(C(F)(F)F)c1ccccc1-2 (centres unmarked)" value_type=pIC50 qual== readout_value=5.99
compound="CNC(=O)COc1cc(-c2cnn(C)c2)c2c(c1)C(O)(C(F)(F)F)c1ccccc1-2 (centres unmarked)" value_type=pIC50 qual== readout_value=7.40
compound="O=C(COc1cc(Br)c2c(c1)C(O)(C(F)(F)F)c1ccccc1-2)N1CCC1 (centres unmarked)" value_type=pIC50 qual== readout_value=7.22
compound="Cn1cc(-c2cc(O)cc3c2-c2ccccc2C3(O)C(F)(F)F)cn1 (centres unmarked)" value_type=pIC50 qual== readout_value=6.98
compound="CN(CCOc1cc(Cl)c2c(c1)C(O)(C(F)(F)F)c1ccccc1-2)S(C)(=O)=O (centres unmarked)" value_type=pIC50 qual== readout_value=7.19
compound="COC(=O)c1cc(Cl)c2c(c1)C(O)(C(F)(F)F)c1ccccc1-2 (single isomer, unassigned) [compound 647]" value_type=pIC50 qual== readout_value=6.77
compound="CN(C)C(=O)C1CN(C(=O)c2ccc3c(c2)C(O)(C(F)(F)F)c2ccccc2-3)C1 (centres unmarked)" value_type=pIC50 qual== readout_value=6.64

---

- System Under Test: human PDHK2 (hPDHK2) (Homo sapiens (Human), UniProt Q15119)
- Experimental Details: Inhibitory action of PDHK activity in vitro (kinase reaction, residual PDH activity measured)
- Assay type: biochemical
- Test Settings: PDHK inhibitory activity, class symbol of IC50
The compounds listed here are annotated with their IC50.
Value Type: IC50

compound="O=C(c1ccc2c(c1)C(O)(C(F)(F)F)c1ccccc1-2)C1CCC1 (centres unmarked)" readout_value="> 1000 nM"
compound="CC(=O)N(C)CCOc1cc(Cl)c2c(c1)C(O)(C(F)(F)F)c1ccccc1-2 (centres unmarked)" readout_value="< 100 nM"
compound="CC(C)Oc1ccc2c(c1)C(O)(C(F)(F)F)c1ccccc1-2 (centres unmarked)" readout_value="> 1000 nM"
compound="CC(C)C(=O)N1CCN(c2ccc3c(c2)C(O)(C(F)(F)F)c2ccccc2-3)CC1 (centres unmarked)" readout_value="100 to 1000 nM"
compound="NCc1cccc2c1-c1ccccc1C2(O)C(F)(F)F (centres unmarked)" readout_value="> 1000 nM"
compound="CN(C)C(=O)CCOc1ccc2c(c1)C(O)(C(F)(F)F)c1ccccc1-2 (centres unmarked)" readout_value="100 to 1000 nM"
compound="CN(C)C(=O)COc1ccc2c(c1)C(O)(C(F)(F)F)c1ccccc1-2 (centres unmarked)" readout_value="100 to 1000 nM"
compound="CCOc1cc(-c2cnn(CCCC(=O)O)c2)c2c(c1)C(O)(C(F)(F)F)c1ccccc1-2 (single isomer, unassigned)" readout_value="< 100 nM"
